# system.tested: T1, membrane-bound B Lymphocyte Stimulator on U937 plasma membrane preparations (human, UniProt Q9Y275 1-285)
# T1 construct: Natural protein in plasma membrane fractions of the human cell line U937 coated on ELISA plates; also called U937 plasma membranes; U937 membranes
# experimental.protocol: phage ELISA
metric: binding result

binder="I031C03 (scFv) scFv: QMQLVQSGAEVRKPGSSVKVSCKASGGSFSSHVFSWVRQAPGQGLEWVGGITPKFATPNYAQKFQHRVTITADELTRTVFMDLSGLRSEDTAVYYCARGYDSSAFRAFDIWGQGTLVTVSSGGGGSGGGGSGGGGSAQSVLTQPPSVSAAPGQKVTISCSGSSSNIGNNYVSWYQQFPGTAPKLLIYDNNNRPSGVPDRFSGSKSGTSATLGITGLQTGDEADYYCGTWDRSLSVVVFGGGTKVTVLG" metric="binding result" result=binds
binder="I001C09 (scFv) scFv: GVQLVQSGPEVKKPGASVKVSCTASGYTFTSYGVSWVRQAPGQGLEWIGWISAHNGQTKYAEKFQGRVTMTRNTSISTAYMELSSLRSEDTAVYYCARDGSYDILTGYYIDNYMDVWGKGTMVTVSSGGGGSGGGGSGGGGSSELTQDPAVSVALGQTVRITCQGDSLRSYYTNWFQQKPGQAPLLVVYAKNKRPSGIPDRFSGSSSGNTASLTITGAQAEDEADYYCHSRDSSGNHVLFGGGTKLTVLG" metric="binding result" result=binds
binder="I007B03 (scFv) scFv: GVQLQQSGAEVKKPGSSVKVSCKASGGTFNTSGITWVRQAPGQGLEWMGWMNPNTGDTAYAQEFQGRVIMTRDTSISTAYMELSSLRSEDTAVYYCARDGSYDILTGYYIDNYMDVWGQGTMVTVSSGGGGSGGGGSGGGGSQSVLTQPASVSGSPGQSITISCTGTSSDVGGYNYVSWYQQHPGKAPKLMIYEGSKRPSGVSNRFSGSKSGNTASLTISGLQAEDEADYYCSSYTTRSTRVFGGGTKLTVLG" metric="binding result" result=binds

meta.source: patent US20110293610A1
